Molecular target: receptor binding domain (RBD) of the S1-subunit of SARS-CoV-2 glycoprotein S (SARS-CoV-2, UniProt P0DTC2 319-541)
Experiment: ACE2:RBD competition assay, 5 µg/ml IgG
Entry flag: true (1) if ACE2:RBD inhibition with 5 µg/ml IgG [%] reaches 50%; false (0) if it does not.

See these solved cases before continuing.
Q: Check the entry YU505-A01 (antibody, V domains shown) VH: QVQLVQSGAEVKKPGASVKVSCKASGYTFTSYYMHWVRQAPGQGLEWMGIINPSGGSTSYAQKFQGRVTMTRDTSTSTVYMELSSLRSEDTAVYYCARDRHYYDSSGSSQATFLFDYWGQGTLVTVSS VL: QSVLTQPPSVSGAPGQRVTISCTGSSSNIGAGYDVHWYQQLPGTAPKLLIYGNSNRPSGVPDRFSGSKSGTSASLAITGLQAEDEADYYCQSYDSSLNVFGTGTKLTVL : does ACE2:RBD inhibition with 5 µg/ml IgG [%] equal or exceed 50%?
A: true (1)

Q: Kindly determine if ACE2:RBD inhibition with 5 µg/ml IgG [%] recorded for YU505-E04 (antibody, V domains shown) VH: QVQLVQSGAEVKKPGSSVKVSCKASGGTFSSYAISWVRQAPGQGLEWMGGIIPIFGTANYAQKFQGRVTITADESTSTAYMELSSLRSEDTAVYYCARGRGYSYGHDYWGQGTLVTVSS VL: SYELTQPPSVSEAPRQRVTISCSGSSSNIGNNAVNWYQQFPGKAPKLLIYYDDLLPSGVSDRFSGSKSGTSASLAISGLQSEDEADYYCAAWDDSLNGWVFGGGTKLTVL is above or exactly 50%.
A: false (0)

Q: Does ACE2:RBD inhibition with 5 µg/ml IgG [%] meet or surpass 50% for YU505-A05 (antibody, V domains shown) VH: QVQLVQSGAEVKKPGSSVKVSCKASGGTFSSYAISWVRQAPGQGLEWMGGIIPIFGTANYAQKFQGRVTITADESTSTAYMELSSLRSEDTAVYYCARSDSGYSGYGYFDYWGQGTLVTVSS VL: QSALTQPASVSGSPGQSISISCTGTSSDVGRYNYVSWYQQHPGKAPKLMIYDVTNRPSGVSSRFSGSKSGNAASLTISGLQAEDEAEYYCTSYTSSNTLVIFGGGTKVTVL ?
A: true (1)

Turning now to a further binder:
Q: Check the entry YU505-A02 (antibody, V domains shown) VH: QVQLVESGAEVKKPGSSVKVSCKASGGTFSSYAISWVRQAPGQGLEWMGGIIPIFGTANYAQKFQGRVTITADESTSTAYMELSSLRSEDTAVYYCARQIWAYDSSGYPVPAEYFQHWGQGTLVTVSS VL: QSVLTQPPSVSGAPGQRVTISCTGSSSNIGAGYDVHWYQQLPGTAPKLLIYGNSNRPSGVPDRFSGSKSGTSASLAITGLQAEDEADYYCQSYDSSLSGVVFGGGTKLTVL : does ACE2:RBD inhibition with 5 µg/ml IgG [%] equal or exceed 50%?
A: false (0)

Provenance of the data: patent US20240059758A1
